- Target Entity: S1 Fc fusion protein (SARS-CoV-2, UniProt P0DTC2 14-685)
- Experiment Notes: phage ELISA
Test Readout: ELISA fold over background

Supply reported ELISA fold over background belonging to this binder: SARS-CoV-2 variant 1-36 (antibody, V domains shown) VH: EVQLLESGGGLVQPGGSLRLSCAASGLTFSSYAMSWVRQAPGKGLEWVSDISGSGGSTYYADSVKGRFTISRDNSKNTLYLQMNSLRAEDTAVYYCVKGTIPIFGVIRSAFDYWGQGTLVTVSS VL: QSALTQPASVSGSPGQSITISCTGTSSDVGSYSLVSWYQQHPGKAPKLMIYEGDKRPSGVSNRFSGSKSGNTASLTISGLQAEDEADYYCCSYAGSYSYVVFGGGTKLTVL
1.1 fold

Return ELISA fold over background for the following binder: SARS-CoV-2 variant 1-27 (antibody, V domains shown) VH: EVQLLESGGGLVQPGGSLRLSCAASGFTFSSYAMTWVRQAPGKGLEWVSAISGSGGGTYYADSVKGRFTISRDNSKNTLYLQMNSLRAEDTAVYYCASSSSWQFDYWGQGTLVTVSS VL: QSALTQPASVSGSPGQSITISCTGTSSYVGHYNLVSWYQQHPGKAPKLMIYEGSRRPSGVSNRFSGSKSGNTASLTISGLQAEDEADYYCCSYAGSYTHYVFGGGTKLTVL
1.3 fold

Dear colleague, please send me the reported ELISA fold over background for SARS-CoV-2 variant 1-25 (antibody, V domains shown) VH: EVQLLESGGGLVQPGGSLRLSCAASGFTFSDYAMNWVRQAPGKGLEWVSIISGSGGSTYYADSVKGRFTISRDNSKNTLYLQMNSLRAEDTAVYYCAREGYRDYLWYFDLWGQGTLVTVSS VL: QSALTQPASVSGSPGQSITISCSGTSSDVGSYNLVSWYQQHPGKAPKLMIYEASKRPSGVSNRFSGSKSGNTASLTISGLQAEDEADYYCCSYAGSSTVFGGGTKLTVL when you can.
1 fold

State its ELISA fold over background for this binder: SARS-CoV-2 variant 1-3 (antibody, V domains shown) VH: EVQLLESGGGLVQPGGSLRLSCAASGFTFSSQAMSWVRQAPGKGLEWVSAISGSGGGTYYADSVKGRFTISRDNSKNTLYLQMNSLRAEDTAVYYCAKDRRFGEFDPWGQGTLVTVSS VL: QSALTQPASVSGSPGQSITISCTGISSDVGSYNLVSWYQQHPGKAPKLMIYEGTKRPSGVSNRFSGSKSGNTASLTISGLQAEDEADYYCCSYAGSSSFVVFGGGTKLTVL
1.5 fold

Identify measured ELISA fold over background associated with SARS-CoV-2 variant 1-28 (antibody, V domains shown) VH: EVQLLESGGGLVQPGGSLRLSCAASGFTFSSYGMSWVRQAPGKGLEWVSAISGSGGGTYYADSVKGRFTISRDNSKNTLYLQMNSLRAEDTAVYYCASSSSWQFDYWGQGTLVTVSS VL: QSALTQPASVSGSPGQSITISCTGTSSGVGSYNLVSWYQQHPGKAPKLMIYEGSQRPSGVSNRFSGSKSGNTASLTISGLQAEDEADYYCCSYAGSSTHYVFGGGTKLTVL
1.1 fold

Please give measured ELISA fold over background of the following entry: SARS-CoV-2 variant 1-49 (antibody, V domains shown) VH: EVQLLESGGGLVQPGGSLRLSCAASGFTFSSYAMYWVRQAPGKGLEWVSAISGSAGSTYYADSVKGRFTISRDNSKNTLYLQMNSLRAEDTAVYYCARDTNDFWGQGTLVTVSS VL: QSALTQPASVSGSPGQSITISCTGTSSDIGSYNLVSWYQQHPGKAPKLMIYEGTKRPSGVSNRFSGSKSGNTASLTISGLQAEDEADYYCCSYAGSRTYVFGGGTKLTVL
0.8 fold

Supply recorded ELISA fold over background for SARS-CoV-2 variant 1-7 (antibody, V domains shown) VH: EVQLLESGGGLVQPGGSLRLSCAASGFTFSSYDMSWVRQAPGKGLEWVSVISGSGGSTYYADSVKGRFTISRDNSKNTLYLQMNSLRAEDTAVYYCAKGPLVGWYFDLWGQGTLVTVSS VL: QSALTQPASVSGSPGQSITISCTGTSSDFGSYNLVSWYQQHPGKAPKLMIYEGNKRPSGVSNRFSGSKSGNTASLTISGLQAEDEADYYCCSYAGSSTFVVFGGGTKLTVL here.
1.7 fold

Return the recorded ELISA fold over background value; entry: SARS-CoV-2 variant 1-31 (antibody, V domains shown) VH: EVQLLESGGGLVQPGGSLRLSCAASGFTFSSYAMNWVRQAPGKGLEWVSAISGSGGSTFYADSVKGRFTISRDNSKNTLYLQMNSLRAEDTAVYYCTRPPYGDYGDYWGQGTLVTVSS VL: QSALTQPASVSGSPGQSITISCTGTSSDVGKYNLVSWYQQHPGKAPKLMIYEGSQRPSGVSNRFSGSKSGNTASLTISGLQAEDEADYYCCSYAGSRTPVVFGGGTKLTVL
15.7 fold

Please report the measured ELISA fold over background for SARS-CoV-2 variant 1-30 (antibody, V domains shown) VH: EVQLLESGGGLVQPGGSLRLSCAASGFTFSSYAMTWVRQAPGKGLEWVSAISGSGGSTFYADSVKGRFTISRDNSKNTLYLQMNSLRAEDTAVYYCTRPPYGDYGDYWGQGTLVTVSS VL: QSALTQPASVSGSPGQSITISCTGTSRDVGSYNLVSWYQQHPGKAPKLMIYEGTKRPSGVSNRFSGSKSGNTASLTISGLQAEDEADYYCCSYAGSRTPVVFGGGTKLTVL
5.6 fold

Look up ELISA fold over background of SARS-CoV-2 variant 1-24 (antibody, V domains shown) VH: EVQLLESGGGLVQPGGSLRLSCAASGFTFSSYAMNWVRQAPGKGLEWVSIISGSGGSTYYADSVKGRFTISRDNSKNTLYLQMNSLRAEDTAVYYCAREGYRDYLWYFDLWGQGTLVTVSS VL: QSALTQPASVSGSPGQSITISCTGTSSDVGYYNLVSWYQQHPGKAPKLMIYEGNKRPSGVSNRFSGSKSGNTASLTISGLQAEDEADYYCCSYAGGSVVFGGGTKLTVL and report it.
1.1 fold

Origin of the recorded values: patent US20210355194A1
